Assay Method Text: In vivo nasal, oral and intravenous delivery of oxybutynin in rats; plasma levels by HPLC
Conditions Used: male, Sprague-Dawley, rat, plasma, po, 5 mg/kg, oral oxybutynin 5 mg/kg (solution in water), read-out: tmax (converted)
Measurement Type: tmax

QUERY: Please give the documented tmax of CCN(CC)CC#CCOC(=O)C(O)(c1ccccc1)C1CCCCC1 (stereo not shown)
RESULT: 30 to 40 min

* * *

Assay Method Text: In vivo nasal, oral and intravenous delivery of oxybutynin in rats; plasma levels by HPLC
Conditions Used: male, Sprague-Dawley, plasma, other: intranasal; rat, intranasal 5 mg/kg; read-out: Bioavailability relative to intravenous administration (100%)
Measurement Type: bioavailability (%)
API: value field is a number in %; no unit string.

QUERY: Please give the documented bioavailability of CCN(CC)CC#CCOC(=O)C(O)(c1ccccc1)C1CCCCC1 (stereo not shown)
RESULT: 90

* * *

Assay Method Text: In vivo nasal, oral and intravenous delivery of oxybutynin in rats; plasma levels by HPLC
Conditions Used: male, Sprague-Dawley, rat, plasma, inhaled or intranasal, 5 mg/kg, intranasal oxybutynin 5 mg/kg, read-out: tmax (converted)
Measurement Type: tmax (min)
API: value field is a number in min; no unit string.

QUERY: Please give the documented tmax of CCN(CC)CC#CCOC(=O)C(O)(c1ccccc1)C1CCCCC1 (stereo not shown)
RESULT: 10

* * *

Assay Method Text: In vivo nasal, oral and intravenous delivery of oxybutynin in rats; plasma levels by HPLC
Conditions Used: male, Sprague-Dawley, plasma; rat, oral 5 mg/kg; read-out: Bioavailability relative to intravenous administration (100%)
Measurement Type: bioavailability

QUERY: Please give the documented bioavailability of CCN(CC)CC#CCOC(=O)C(O)(c1ccccc1)C1CCCCC1 (stereo not shown)
RESULT: ~9%

* * *

Assay Method Text: In vivo nasal, oral and intravenous delivery of oxybutynin in rats; plasma levels by HPLC
Conditions Used: male, Sprague-Dawley, inhaled or intranasal, rat, intranasal oxybutynin 5 mg/kg, mean ± SEM, read-out: AUC0-2 h
Measurement Type: AUC(0-t) (ng·h/mL)
API: value field is a number in ng·h/mL; no unit string.

QUERY: Please give the documented AUC(0-t) of CCN(CC)CC#CCOC(=O)C(O)(c1ccccc1)C1CCCCC1 (stereo not shown)
RESULT: 1770

* * *

Assay Method Text: In vivo nasal, oral and intravenous delivery of oxybutynin in rats; plasma levels by HPLC
Conditions Used: male, Sprague-Dawley, rat, oral oxybutynin 5 mg/kg, mean ± SEM, read-out: AUC0-2 h
Measurement Type: AUC(0-t) (ng·h/mL)
API: value field is a number in ng·h/mL; no unit string.

QUERY: Please give the documented AUC(0-t) of CCN(CC)CC#CCOC(=O)C(O)(c1ccccc1)C1CCCCC1 (stereo not shown)
RESULT: 180
